Origin of measurements: patent US20190135908A1

# SYSTEM: T1, GDF15 mutant S278R (back-of-hand), albumin fusion (human, UniProt Q99988 195-308)
# T1 construct: not shown: albumin fusion partner
# T1 chain: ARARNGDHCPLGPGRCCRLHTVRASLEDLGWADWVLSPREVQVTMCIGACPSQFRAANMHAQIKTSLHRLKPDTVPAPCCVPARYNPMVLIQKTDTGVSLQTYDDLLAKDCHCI
# ASSAY EXPLANATION: direct ELISA on coated albumin-fusion GDF15 variant

| BINDER | binding result |
| --- | --- |
| ABGDF15-A (antibody, human IgG1, kappa, V domains shown, captured through anti-human Fc in the Biacore assay) VH: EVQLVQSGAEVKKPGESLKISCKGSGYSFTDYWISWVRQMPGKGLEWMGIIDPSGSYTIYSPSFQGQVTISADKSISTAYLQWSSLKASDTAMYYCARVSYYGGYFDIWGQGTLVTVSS VL: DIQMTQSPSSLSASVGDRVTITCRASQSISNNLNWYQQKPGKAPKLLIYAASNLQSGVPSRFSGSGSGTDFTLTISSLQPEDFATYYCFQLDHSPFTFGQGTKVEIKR | binds |
| ABGDF15-F (antibody, human IgG1, lambda, V domains shown, captured through anti-human Fc in the Biacore assay) VH: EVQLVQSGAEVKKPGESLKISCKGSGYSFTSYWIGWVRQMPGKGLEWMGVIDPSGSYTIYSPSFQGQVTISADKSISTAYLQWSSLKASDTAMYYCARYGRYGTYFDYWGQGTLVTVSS VL: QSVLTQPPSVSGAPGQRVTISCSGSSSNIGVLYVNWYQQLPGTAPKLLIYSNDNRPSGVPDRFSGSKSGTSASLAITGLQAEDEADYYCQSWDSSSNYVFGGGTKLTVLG | binds |
| ABGDF15-B (antibody, human IgG1, lambda, V domains shown, captured through anti-human Fc in the Biacore assay) VH: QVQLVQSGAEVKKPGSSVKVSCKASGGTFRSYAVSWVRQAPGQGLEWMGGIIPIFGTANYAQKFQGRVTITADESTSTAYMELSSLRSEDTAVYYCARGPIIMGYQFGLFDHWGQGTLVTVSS VL: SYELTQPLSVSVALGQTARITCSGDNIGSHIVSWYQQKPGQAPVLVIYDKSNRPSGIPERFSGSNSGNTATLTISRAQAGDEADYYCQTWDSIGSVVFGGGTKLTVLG | binds |
